experiment: xn = mol fraction of the nth substance listed, in the solute-free solvent; conditions: 288.15 K; x2 = 0.5454
ASSAY METRIC: solubility (g/100 g solution)
API doc: respond with a numeric literal and nothing else, no unit.

Known solubility (g/100 g solution) results, listed for orientation:
{"columns": ["COMPOUND", "solubility (g/100 g solution)"],
 "data": [
  ["Nc1cccc2ccncc12 + CC(C)O + O", 0.915],
  ["CN1CCC(N(Cc2cccs2)c2ccccc2)CC1 + CCCO + O", 2.3],
  ["CN1CCC(N(Cc2cccs2)c2ccccc2)CC1 + CC(C)O + O", 1.82],
  ["Nc1cccc2ccncc12 + CCCO + O", 1.11]
]}

Now consider a different compound.
Prompt: Specify solubility (g/100 g solution) for Cc1ccc2cc(Br)ccc2n1 + CC(C)O + O and stop.
Response: 0.856
